Hello, the source for this data is paper PMC11855827, in case you need it.

System: C. elegans
assay: microbe, parasite or virus in culture
run_parameters: Caenorhabditis elegans, 24 h, read-out: Percentage of motility inhibition 24 h, Table S2, C. elegans SS assay, 110 μM, 24 h, averages of 4 data points
measured_parameter: inhibition at 110 µM (%)
Give the number; % is assumed, so skip it.

Query: Identify the reported inhibition at 110 µM for the following entry. N[C@@H](CS)C(=O)O
Result: 7

Query: For the compound O=c1[nH]c2ccccc2o1 , report inhibition at 110 µM.
Result: 6

Query: Return inhibition at 110 µM (reported value) for this compound: CC(=O)O[C@H]1CC(=O)OC(C)(C)[C@@H]2CC(=O)[C@]3(C)[C@H](CC[C@@]4(C)[C@H](c5ccoc5)OC(=O)[C@H]5O[C@]543)[C@@]12C
Result: 22

Query: Recall and state the measured inhibition at 110 µM for CC(=O)OCC1=C[C@@H]2OC(=O)C3=CO[C@@H](O[C@@H]4O[C@H](CO)[C@@H](O)[C@H](O)[C@H]4O)[C@H]1[C@@H]32 [Asperuloside] .
Result: 5

Query: Recall and state the measured inhibition at 110 µM for O=C(CC1NCCCC1O)Cn1cnc2cc(Br)c(Cl)cc2c1=O (centres unmarked) .
Result: 11

Query: For the compound COc1cc(NCc2ccc3nc(N)nc(N)c3c2C)cc(OC)c1OC [Trimetrexate] , report inhibition at 110 µM.
Result: 0

Query: Dear colleague, please send me the reported inhibition at 110 µM for CC[C@@]1(O)C(=O)OCc2c1cc1n(c2=O)Cc2cc3cc(O)ccc3nc2-1 [(S)‐10‐Hydroxycamptothecin] when you can.
Result: 0

Query: Supply reported inhibition at 110 µM belonging to this compound: O=C(Nc1ccccc1)c1ccccc1O [Salicylanilide]
Result: 21
